B1: Pistol ribozyme (parent)
chain: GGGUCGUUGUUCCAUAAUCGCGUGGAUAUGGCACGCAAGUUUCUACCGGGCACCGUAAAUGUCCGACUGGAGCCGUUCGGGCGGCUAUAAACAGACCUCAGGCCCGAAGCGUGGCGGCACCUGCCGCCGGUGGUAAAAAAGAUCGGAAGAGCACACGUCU

- Variants of: B1
- PROTOCOL: aptazyme ON/OFF ratio, guanine; higher = stronger switching; co-transcriptional cleavage with and without guanine
# aptazyme ON/OFF ratio values compiled below
I only need the number, thanks.

# example entries with known answers
>>> df
                          mutation      observed_property  reported
0                        C12A C13U  aptazyme ON/OFF ratio       1.9
1  U7A U8G G9U U10C U11G C12G C13G  aptazyme ON/OFF ratio      1.26
2       U7C U8C G9A U11A C12G C13U  aptazyme ON/OFF ratio      1.23
3            U7G U8G G9C U11A C13A  aptazyme ON/OFF ratio      1.15
4  U7C U8G G9C U10C U11G C12A C13A  aptazyme ON/OFF ratio      1.12

Supply aptazyme ON/OFF ratio value. Item: U8A G9A U10C U11G C12U C13A
1.17

Give aptazyme ON/OFF ratio for the following variant: U8C G9C U10A U11A C12G
1.25

Specify measured aptazyme ON/OFF ratio for U8C G9A U10A U11A C12U C13G .
1.18

Look up aptazyme ON/OFF ratio of U7A U8A U10A U11A C12G and report it.
1.19

Let me know recorded aptazyme ON/OFF ratio for U7C U8C U10G C12U C13U , thanks.
1.13

Return aptazyme ON/OFF ratio (reported value) for this variant: U7C U8C G9U U10G U11C C13U
1.21

Entry U8C G9A U10A U11A C12U C13A needs its aptazyme ON/OFF ratio filled in; supply it.
1.28

Recall and state the measured aptazyme ON/OFF ratio for U7C U8A G9U U10G C12A C13U .
1.17

Given U7C U8A U10G U11G C12A C13A , respond with its aptazyme ON/OFF ratio.
1.18

Given U7C G9A U10A U11C , respond with its aptazyme ON/OFF ratio.
1.09

Determine its reported aptazyme ON/OFF ratio: U7C U8C U10A U11G C13U
1.18

Give reported aptazyme ON/OFF ratio value for U7C U8C G9U U11A C13U
1.15

Provide one value: measured aptazyme ON/OFF ratio of U7G U8G U10G U11G C12G C13U
1.31

Annotate the variant G9C U10G C12U C13G with its measured aptazyme ON/OFF ratio.
1.15

Please indicate aptazyme ON/OFF ratio recorded for U7G U8A G9U C12A C13G
1.05

Could you please provide reported aptazyme ON/OFF ratio for U8C G9U U10G U11C C13U ? Thanks!
1.11

Read the entry U7C U8C G9U U10G U11A C13A and write its reported aptazyme ON/OFF ratio.
1.18
